Source of measurements: patent EP4768487A1

- protocolSummary: Pharmacokinetic evaluation in Balb/c mice
- Format: in vivo
- testContext: male, mouse, plasma, 1mg/kg, PO
- Protocol: Experimental objective: To understand the pharmacokinetic profiles of the compounds. Experimental basis: Technical guidelines for non-clinical pharmacokinetic studies of chemical drugs, 2014. Experimental scheme: The pharmacokinetic profiles of the compounds were investigated by intravenous administration (1 mg·kg^-1) and intragastric administration (1 mg·kg^-1) in Balb/c mice. […]
parameter: Cmax (ng/mL)
Give bare numbers, in ng/mL.

[[record]]
molecule = "CCc1cc2c([nH]c1=O)CC(CN1CCN(c3ccc(C(=O)NC)nc3F)CC1)OC2 (centres unmarked)"
unitofmeasurement = "ng/mL"
number = 2350

[[record]]
molecule = "CNC(=O)c1ccc(C2=CCN(CC3Cc4[nH]c(=O)c(C5CC5)cc4CO3)CC2)c(F)n1 (centres unmarked)"
unitofmeasurement = "ng/mL"
number = 6280

[[record]]
molecule = "CCc1nc2c([nH]c1=O)C[C@@H](CN1CC=C(c3ccc(C(=O)NC)nc3F)CC1)CC2"
unitofmeasurement = "ng/mL"
number = 3650


Hi, could you look up Cmax for each item in my list?
1. CNC(=O)c1ccc(N2CCN(CC3Cc4[nH]c(=O)c(C)cc4CO3)CC2)c(Cl)n1 (centres unmarked)
2. CNC(=O)c1ccc(N2CCN(C[C@H]3CCc4nc(C)c(=O)[nH]c4C3)CC2)c(F)n1

a:
1. 2350
2. 359
